The values you see were collected from PubChem BioAssay (Tox21).

target: Acetylcholinesterase (Homo sapiens) (UniProt P22303); assay: Acetylcholinesterase (AChE) small molecule antagonists: fluorescence cell-based qHTS assay (AID 1347398); conditions: SH-SY5Y cells; AChE activity; series mostly up to 115 µM; further: nearly all actives have a fitted effect of over 50% in size
Sequence (P22303 whole entry, looked up): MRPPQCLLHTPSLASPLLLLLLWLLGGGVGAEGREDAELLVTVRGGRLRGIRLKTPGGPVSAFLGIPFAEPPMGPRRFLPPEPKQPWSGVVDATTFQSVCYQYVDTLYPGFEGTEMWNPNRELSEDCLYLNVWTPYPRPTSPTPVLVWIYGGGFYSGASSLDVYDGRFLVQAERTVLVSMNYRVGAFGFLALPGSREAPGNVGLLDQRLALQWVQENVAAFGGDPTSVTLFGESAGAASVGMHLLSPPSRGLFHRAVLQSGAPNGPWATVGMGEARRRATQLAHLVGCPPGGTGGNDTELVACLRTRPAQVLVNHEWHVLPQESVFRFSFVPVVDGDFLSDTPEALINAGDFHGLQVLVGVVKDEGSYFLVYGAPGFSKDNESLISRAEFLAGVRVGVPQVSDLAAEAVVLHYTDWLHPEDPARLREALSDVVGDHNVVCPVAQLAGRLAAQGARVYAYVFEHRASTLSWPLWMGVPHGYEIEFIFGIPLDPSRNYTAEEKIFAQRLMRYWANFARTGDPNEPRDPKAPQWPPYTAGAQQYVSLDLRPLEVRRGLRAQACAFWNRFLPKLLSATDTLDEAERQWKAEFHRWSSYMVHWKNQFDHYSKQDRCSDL
Results filed as inconclusive are left out. Active and inactive are the calls of the source. The call rests on the fitted dose curve.
Valid outcomes are listed here; reply with one: active, inactive

Look up the recorded call for COCC(=O)N(c1c(C)cccc1C)[C@H](C)C(=O)OC in this test.
inactive

Same for CN(C)CCc1c[nH]c2ccc(O)cc12
inactive

Same for Clc1ccc(-c2ccccc2)cc1
inactive

Same for CC(=O)c1ccc(-c2ccccc2)cc1
inactive

Same for COS(=O)(=O)c1ccc(C)cc1
inactive

Same for Clc1ccc(CSC(Cn2ccnc2)c2ccc(Cl)cc2Cl)cc1 (stereo unspecified)
inactive

Same for C=CC(=O)OCC(COC(=O)C=C)(COC(=O)C=C)COC(=O)C=C
inactive

Same for C[C@]12CC[C@H]3[C@@H](CCC4=CC(=O)CC[C@@]43C)[C@@H]1CC[C@@H]2O
inactive

Same for CCS(=O)(=O)c1cccnc1S(=O)(=O)NC(=O)Nc1nc(OC)cc(OC)n1
inactive

Same for CN(C)S(=O)(=O)N(SC(F)(Cl)Cl)c1ccccc1
active

Same for CC(=O)OC1(c2ccccc2)CCN(CCc2ccccc2)CC1
inactive

Same for N#CCCSCCC#N
inactive

Same for CCCCCCCCCCCCCC[P+](CCCCCC)(CCCCCC)CCCCCC (tested in a mixture with another compound)
active

Same for O=C1NCN(c2ccccc2)C12CCN(CC1COc3ccccc3O1)CC2 (stereo unspecified)
inactive

Same for Cc1cccc(OP(=O)(Oc2cccc(C)c2)Oc2cccc(C)c2)c1
inactive

Same for BrC(Br)Br
inactive

Same for CC(=O)c1cc(C(C)(C)C)cc2c1CCC2(C)C
inactive

Same for CCCCCCCCCCCCCN1CC(C)OC(C)C1 (stereo unspecified)
inactive

Same for Oc1ccc(C2(c3ccc(O)cc3)c3ccccc3-c3ccccc32)cc1
inactive

Same for C=CC(=O)N(C)C
inactive

Same for OC(c1ccc(Cl)cc1)(c1ccc(Cl)cc1)C(Cl)(Cl)Cl
inactive

Same for CCN(CC)C(=S)[S-].CCN(CC)C(=S)[S-].[Zn+2]
inactive

Same for CC(C)(c1ccc(O)c(-c2ccccc2)c1)c1ccc(O)c(-c2ccccc2)c1
inactive

Same for Clc1ccc(C(Cl)(Cl)Cl)c(Cl)c1
inactive

Same for CCOC(=O)c1ccccc1S(=O)(=O)NC(=O)Nc1nc(Cl)cc(OC)n1
inactive

Same for CC(C)OS(C)(=O)=O
inactive

---

assay: qHTS RealTime-Glo MT Cell Viability Assay in HepG2 cells - 0 hour (AID 1224889); conditions: RealTime-Glo luminescence; series mostly up to 76.8 µM; further: nearly all actives have a fitted effect of over 50% in size
Inconclusive results are not listed. Active and inactive are the calls of the source. Calls come from the whole dose curve; as a rule, active = well fitted cell-killing curve with a large enough effect in the repeat runs; inconclusive = weak or mixed curves, or effect the other way; inactive = flat fitted curve, though single readings scatter.
Valid outcomes are listed here; reply with one: yes (1) = active, no (0) = inactive

Look up the recorded call for COc1ccc(OC)c(C=O)c1 in this test.
no (0)

Same for CC(C)(C)C(O)/C(=C\c1ccc(Cl)cc1Cl)n1cncn1 (stereo not drawn)
no (0)

Same for COC12CC[C@@]3(C[C@@H]1C(C)(O)C(C)(C)C)[C@H]1Cc4ccc(O)c5c4[C@@]3(CCN1CC1CC1)[C@H]2O5 (stereo partly drawn)
no (0)

Same for C=CC(=O)N(C)C
no (0)

Same for COc1cccc(C(=O)CCN[C@@H](C)[C@H](O)c2ccccc2)c1
no (0)

Same for N#CC(Cl)Cl
no (0)

Same for CCN(CC)C(=S)[S-].CCN(CC)C(=S)[S-].[Zn+2]
no (0)

Same for CC(=O)Nc1ccc2c(c1)Cc1ccccc1-2
no (0)

Same for CC(=O)[O-].[Tl+]
no (0)

Same for c1ccc(OCC2CO2)cc1 (stereo not drawn)
no (0)

Same for Clc1ccc(CO/N=C(\Cn2ccnc2)c2ccc(Cl)cc2Cl)c(Cl)c1
no (0)

Same for N#CCCO
no (0)

Same for CCc1ccccc1C
no (0)

Same for N#Cc1ccccc1N
no (0)

Same for CCC(C)(C)C(=O)OC1=C(c2ccc(Cl)cc2Cl)C(=O)OC12CCCCC2
yes (1)

Same for Oc1ccc(C(=C(Cl)Cl)c2ccc(O)cc2)cc1
no (0)

Same for CN(C)C(=S)S
no (0)

Same for C[C@]12CC[C@H](O)C[C@H]1CC[C@@H]1[C@@H]2C[C@@H](O)[C@]2(C)[C@@H](C3=CC(=O)OC3)CC[C@]12O
no (0)

Same for Cc1ccc(CCl)cc1
no (0)

Same for CC(C)(C)C(O)C(Oc1ccc(-c2ccccc2)cc1)n1cncn1 (stereo not drawn)
no (0)

Same for C[C@]12Cc3nonc3C[C@@H]1CC[C@@H]1[C@@H]2CC[C@@]2(C)[C@H]1CC[C@]2(C)O
no (0)

Same for CCCN(CCC)CCc1c[nH]c2ccccc12
no (0)

Same for CC(=O)O[C@H]1CC[C@@]2(C)C(=CC[C@@H]3[C@@H]2CC[C@]2(C)C(=O)CC[C@@H]32)C1
no (0)

Same for CC(C)OC(=S)S
no (0)

Same for Cc1cc(C(C)(C)c2cc(C)c(O)c(C)c2)cc(C)c1O
no (0)

Same for C[C@@H](Oc1ccc(Cl)cc1Cl)C(=O)O
no (0)

Same for CC(C)C(=O)Cl
no (0)

Same for Oc1ccccc1Br
no (0)

Same for CN(C)[C@@H]1C(=O)C(C(N)=O)=C(O)[C@@]2(O)C(=O)C3=C(O)c4c(O)ccc(Cl)c4[C@@](C)(O)[C@H]3C[C@@H]12
no (0)

Same for CC(C)Oc1cccc(NC(=O)c2ccccc2C(F)(F)F)c1
no (0)

Same for C1CCC2CCCCC2C1 (stereo not drawn)
no (0)

Same for CCCCN(CCCC)C(=S)[S-].CCCCN(CCCC)C(=S)[S-].[Zn+2]
no (0)

Same for Nc1ccc(Sc2ccc(N)cc2)cc1
no (0)

Same for CC[C@H]1C[C@@H]2C[C@H]3c4[nH]c5ccc(OC)cc5c4CCN(C2)[C@@H]13
no (0)

Same for BrC(Br)Br
no (0)

Same for Clc1ccc(C(c2ccccc2Cl)C(Cl)(Cl)Cl)cc1 (stereo not drawn)
no (0)

Same for C[C@@H]1O[C@@H](O[C@@H]2C=C3CC[C@@H]4[C@H](CC[C@]5(C)[C@@H](c6ccc(=O)oc6)CC[C@]45O)[C@@]3(C)CC2)[C@H](O)[C@H](O)[C@H]1O
no (0)

Same for Cn1[nH]nnc1=S
no (0)

Same for C=COCCCl
no (0)

Same for O=[N+]([O-])c1cc(Cl)ccc1Cl
no (0)

Same for CC(C)C1CCC(Cc2ccc(Cl)cc2)C1(O)Cn1cncn1 (stereo not drawn)
no (0)

Same for NC(=O)c1ccc(N)nc1
no (0)

Same for CCCCCCCCCCCCBr
no (0)

Same for Cc1cccc(OP(=O)(Oc2cccc(C)c2)Oc2cccc(C)c2)c1
no (0)

Same for [Hg+2].[I-].[I-]
yes (1)

Same for CC1CCC(C(C)C)C(OC(=O)c2ccccc2N)C1 (stereo not drawn)
no (0)

Same for CN(C)CCc1c[nH]c2ccc(O)cc12
no (0)

Same for N#C/C=C/c1ccccc1
no (0)

Same for CC(C)CC(C)Nc1ccc(Nc2ccccc2)cc1 (stereo not drawn)
yes (1)

Same for CCOCCOC(C)=O
no (0)

Same for CCCCOCN(C(=O)CCl)c1c(CC)cccc1CC
no (0)

Same for CC(C)CCCCCOC(=O)c1ccccc1C(=O)OCCCCCC(C)C
no (0)

Same for CCCCCCCCCBr
no (0)

---

assay: A CellTox Green Cytotoxicity Assay to monitor cytotoxicity in HepG2 cells - 24 hour (AID 1224878); conditions: CellTox Green fluorescence; series mostly up to 76.8 µM; further: nearly all actives have a fitted effect of over 45% in size
Inconclusive results are not listed. Calls of active or inactive are those of the source. Calls follow the shape of the dose curve; as a rule, active = well fitted activation curve with a large enough effect in the repeat runs; inconclusive = weak or mixed curves; inactive = flat fitted curve, though single readings scatter.
Valid outcomes are listed here; reply with one: active, inactive

Look up the recorded call for NC(=O)CCl in this test.
inactive

Same for CC(=O)O[C@H]1CC[C@@]2(C)C(=CC[C@@H]3[C@@H]2CC[C@]2(C)C(=O)CC[C@@H]32)C1
inactive

Same for COP(N)(=S)OC
inactive

Same for CCC(C)c1cc([N+](=O)[O-])cc([N+](=O)[O-])c1OC(=O)C=C(C)C (configuration not stated)
inactive

Same for CCC(C)c1cc(C(C)(C)C)cc(-n2nc3ccccc3n2)c1O (configuration not stated)
inactive

Same for O=C1C=CC(=O)c2ccccc21
active

Same for O=C1c2ccccc2C(=O)C1C(=O)C(c1ccccc1)c1ccc(Cl)cc1 (configuration not stated)
active

Same for CCC[CH2][Sn]([CH2]CCC)([CH2]CCC)[O]C(=O)c1ccccc1
active

Same for CCCN(CC)CC1COC2(CCC(C(C)(C)C)CC2)O1 (configuration not stated)
inactive

Same for Oc1ccc(C2(c3ccc(O)cc3)CCCCC2)cc1
inactive

Same for Clc1ccc(CSC(Cn2ccnc2)c2ccc(Cl)cc2Cl)cc1 (configuration not stated)
inactive

Same for COc1cc(N)c(Cl)cc1C(=O)NC1CN2CCC1CC2 (configuration not stated)
inactive
